{"MOLECULE": "C[C@@H]1c2ccccc2CCN1C(=O)c1cc(C2CC2)n2nc(-c3ccc(N4CC[C@H](NC(=O)C(F)(F)F)C4)cc3F)cc2n1 [Compound 76]", "melting point, °C": 221.2}
{"MOLECULE": "C[C@@H]1c2ccccc2CCN1C(=O)c1cc(C2CC2)n2nc(-c3ccc(N4CC(C(N)=O)C4)cc3F)cc2n1 [Compound 91]", "melting point, °C": 236.01}
{"MOLECULE": "C[C@@H]1c2ccccc2CCN1C(=O)c1cc(C2CC2)n2nc(-c3cnc(N4CC[C@H](C(=O)NS(C)(=O)=O)C4)cc3F)cc2n1 [Compound 54]", "melting point, °C": 254.46}
{"MOLECULE": "C[C@@H]1c2ccccc2CCN1C(=O)c1cc(C2CC2)n2nc(-c3ccc(N4CCC(O)CC4)cc3F)cc2n1 [Compound 74]", "melting point, °C": 144.01}
{"MOLECULE": "C[C@@H]1c2ccccc2CCN1C(=O)c1cc(C2CC2)n2nc(-c3ccc(N4CC(CC(N)=O)C4)cc3F)cc2n1 [Compound 65]", "melting point, °C": 211.64}
{"MOLECULE": "C[C@@H]1c2ccsc2CCN1C(=O)c1cc(C2CC2)n2nc(-c3ccc(N4CC[C@H](CC(N)=O)C4)cc3F)cc2n1 (single isomer, unassigned) [Compound 42]", "melting point, °C": 206.84}
{"MOLECULE": "C[C@@H]1c2ccccc2CCN1C(=O)c1cc(C2CC2)n2nc(-c3ccc(N4CC[C@@H](S(C)(=O)=O)C4)cc3F)cc2n1 [Compound 17]", "melting point, °C": 258.48}
{"MOLECULE": "C[C@@H]1c2ccccc2CCN1C(=O)c1cc(C2CC2)n2nc(-c3ccc(N4CC[C@@H](NS(C)(=O)=O)C4)cc3F)cc2n1 [Compound 11]", "melting point, °C": 159.35}
{"MOLECULE": "C[C@@H]1c2ccccc2CCN1C(=O)c1cc(C2CC2)n2nc(-c3cc(F)c(N4CC[C@H](C(N)=O)C4)cc3F)cc2n1 [Compound 55]", "melting point, °C": 253.3}
{"MOLECULE": "C[C@@H]1c2cc(F)ccc2CCN1C(=O)c1cc(C2CC2)n2nc(-c3ccc(N4CC[C@H](C(N)=O)C4)cc3F)cc2n1 (single isomer, unassigned) [Compound 47]", "melting point, °C": 245.69}
{"MOLECULE": "C[C@@H]1c2ccccc2CCN1C(=O)c1cc(C2CC2)n2nc(-c3ccc(N4CCC5(COC5)C4)cc3F)cc2n1 [Compound 5]", "melting point, °C": 220.25}
{"MOLECULE": "CNC(=O)[C@H]1CCN(c2cc(F)c(-c3cc4nc(C(=O)N5CCc6ccccc6[C@H]5C)cc(C5CC5)n4n3)cn2)C1 [Compound 53]", "melting point, °C": 228.33}
{"MOLECULE": "C[C@@H]1c2ccccc2CCN1C(=O)c1cc(C2CC2)n2nc(-c3cnc(N4CC[C@H](C(N)=O)C4)cc3F)cc2n1 [Compound 52]", "melting point, °C": 246.17}
